- MEASUREMENT_TARGET: HCV NS3-4A protease (Hepatitis C virus genotype 1a, UniProt P27958)
- Construct: HCV NS3-4A protease
- Sequence (P27958 1027-1657): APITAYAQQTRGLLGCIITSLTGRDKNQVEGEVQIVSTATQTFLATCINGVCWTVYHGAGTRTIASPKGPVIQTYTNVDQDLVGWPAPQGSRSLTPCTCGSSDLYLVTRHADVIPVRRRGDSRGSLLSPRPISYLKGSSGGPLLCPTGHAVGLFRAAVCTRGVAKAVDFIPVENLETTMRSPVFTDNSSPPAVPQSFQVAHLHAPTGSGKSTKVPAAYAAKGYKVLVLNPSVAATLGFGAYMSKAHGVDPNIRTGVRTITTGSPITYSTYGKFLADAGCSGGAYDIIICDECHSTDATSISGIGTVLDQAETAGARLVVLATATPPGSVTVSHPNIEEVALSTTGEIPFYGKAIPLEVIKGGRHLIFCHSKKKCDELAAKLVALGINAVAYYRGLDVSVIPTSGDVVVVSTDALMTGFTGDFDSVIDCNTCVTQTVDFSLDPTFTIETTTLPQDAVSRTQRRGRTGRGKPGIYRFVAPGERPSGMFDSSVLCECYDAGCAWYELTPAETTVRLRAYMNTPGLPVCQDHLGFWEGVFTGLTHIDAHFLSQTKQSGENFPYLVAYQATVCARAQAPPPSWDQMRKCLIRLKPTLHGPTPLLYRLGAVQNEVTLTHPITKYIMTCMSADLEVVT
- Sequence (P27958 1658-1711): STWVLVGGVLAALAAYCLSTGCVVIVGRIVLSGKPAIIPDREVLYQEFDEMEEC
- ASSAY_SUMMARY: HCV NS3-4A protease assay in vitro (FRET-S substrate)
- Assay type: biochemical
ASSAY_METRIC: IC50

[ask] Request: IC50, test system HCV NS3-4A protease (Hepatitis C virus genotype 1a, UniProt P27958), entry CC[C@H]1C[C@@]1(NC(=O)C1C[C@@H](OC(=O)N2Cc3cc4c(cc3C2)OCO4)CN1C(=O)[C@@H](NC(=O)[C@@H](NC(=O)OCc1ccccc1)C1CCCCC1)C(C)(C)C)C(=O)NS(=O)(=O)C1CC1 (stereo partly shown) [Compound 30y]
[reply] < 30 nM

[ask] Another: CC[C@H]1C[C@@]1(NC(=O)C1C[C@@H](OC(=O)N2Cc3cc4c(cc3C2)OCCCO4)CN1C(=O)[C@@H](NC(=O)[C@@H](NC(=O)OC1CCCC1)C1CCCCC1)C(C)(C)C)C(=O)NS(=O)(=O)C1CC1 (stereo partly shown) [Compound 30ae]
[reply] 30 to 200 nM

[ask] For CC[C@H]1C[C@@]1(NC(=O)C1C[C@@H](OC(=O)N2Cc3ccc4c(c3C2)OCO4)CN1C(=O)[C@@H](NC(=O)[C@@H](NC(=O)c1cnccn1)C1CCCCC1)C(C)(C)C)C(=O)NS(=O)(=O)C1CC1 (stereo partly shown) [Compound 30f] then?
[reply] < 30 nM

[ask] Please answer likewise for CC[C@H]1C[C@@]1(NC(=O)C1C[C@@H](OC(=O)N2Cc3ccc4c(c3C2)OCCCO4)CN1C(=O)[C@@H](NC(=O)[C@@H](NC(=O)c1cnccn1)C1CCCCC1)C(C)(C)C)C(=O)NS(=O)(=O)C1CC1 (stereo partly shown) [Compound 30j]
[reply] < 30 nM

###

- MEASUREMENT_TARGET: HCV NS3-4A protease (Hepatitis C virus genotype 1a)
- Construct: HCV NS3-4A protease
- ASSAY_SUMMARY: HCV NS3-4A protease assay in vitro (FRET-S substrate)
- Assay type: biochemical
pIC50: −log10 of the molar value.
Please go through the items and note down their pIC50.

[ask] Reported pIC50, molecule C=C[C@H]1C[C@@]1(NC(=O)C1C[C@@H](OC(=O)N2Cc3ccc4c(c3C2)OCCO4)CN1C(=O)[C@@H](NC(=O)[C@@H](NC(=O)c1cnccn1)C1CCCCC1)C(C)(C)C)C(=O)NS(=O)(=O)C1CC1 (stereo partly drawn) [Compound 30d] : ____
[reply] > 7.52

[ask] CC[C@H]1C[C@@]1(NC(=O)C1C[C@@H](OC(=O)N2Cc3cc4c(cc3C2)OCO4)CN1C(=O)[C@@H](NC(=O)[C@@H](NC(=O)Oc1ccccc1)C1CCCCC1)C(C)(C)C)C(=O)NS(=O)(=O)C1CC1 (stereo partly drawn) [Compound 30z] , same question.
[reply] > 7.52

[ask] Record: CC[C@H]1C[C@@]1(NC(=O)C1C[C@@H](OC(=O)N2Cc3cc4c(cc3C2)OCO4)CN1C(=O)[C@@H](NC(=O)[C@@H](NC(=O)OC1CCCC1)C1CCCCC1)C(C)(C)C)C(=O)NS(=O)(=O)C1CC1 (stereo partly drawn) [Compound 30t]
[reply] > 7.52

[ask] Cool, now CC[C@H]1C[C@@]1(NC(=O)C1C[C@@H](OC(=O)N2Cc3cc4c(cc3C2)OCCCO4)CN1C(=O)[C@@H](NC(=O)[C@@H](NC(=O)OC(C)(C)C)C1CCCCC1)C(C)(C)C)C(=O)NS(=O)(=O)C1CC1 (stereo partly drawn) [Compound 30ad]
[reply] 6.70 to 7.52

[ask] Also check CC[C@H]1C[C@@]1(NC(=O)C1C[C@@H](OC(=O)N2Cc3cc4c(cc3C2)OCO4)CN1C(=O)[C@@H](NC(=O)[C@@H](NC(=O)c1cnccn1)C1CCCCC1)C(C)(C)C)C(=O)NS(=O)(=O)C1CC1 (stereo partly drawn) [Compound 30b]
[reply] > 7.52

[ask] # iterate: CCC[C@H](NC(=O)C1C[C@@H](OC(=O)N2Cc3ccc4c(c3C2)OCCO4)CN1C(=O)[C@@H](NC(=O)[C@@H](NC(=O)c1cnccn1)C1CCCCC1)C(C)(C)C)C(=O)C(=O)NC1CC1 (stereo partly drawn) [Compound 33d]
[reply] < 6.70

[ask] Now the molecule CC[C@H]1C[C@@]1(NC(=O)C1C[C@@H](OC(=O)N2Cc3cc4c(cc3C2)OCO4)CN1C(=O)[C@@H](NC(=O)[C@@H](NC(=O)NC(C)(C)C)C1CCCCC1)C(C)(C)C)C(=O)NS(=O)(=O)C1CC1 (stereo partly drawn) [Compound 30ac]
[reply] > 7.52

[ask] Could you do the same for C=C[C@H]1C[C@@]1(NC(=O)C1C[C@@H](OC(=O)N2Cc3cc4c(cc3C2)OCO4)CN1C(=O)[C@@H](NC(=O)[C@@H](NC(=O)c1cnccn1)C1CCCCC1)C(C)(C)C)C(=O)NS(=O)(=O)C1CC1 (stereo partly drawn) [Compound 30a] , please?
[reply] > 7.52

[ask] And then CC[C@H]1C[C@@]1(NC(=O)C1C[C@@H](OC(=O)N2Cc3cc4c(cc3C2)OCO4)CN1C(=O)[C@@H](NC(=O)[C@@H](NC(=O)OC(C)C)C1CCCCC1)C(C)(C)C)C(=O)NS(=O)(=O)C1CC1 (stereo partly drawn) [Compound 30w] , what is it?
[reply] > 7.52
